Test system: cloned human or rodent CNS receptors, channels, and transporters (PDSP panel)
Test: PDSP GPCR panel primary binding assays at 10 μM
Settings: Receptor Alpha2A; primary assay, 10 μM
Procedure: GPCR panel: Screening against the receptors within the PDSP panel offers an assessment of off-target pharmacological activity at cloned human or rodent CNS receptors, channels, and transporters that could confound CNS-related phenotypes. A total of 46–47 primary binding assays were run in quadruplicate on these compounds at 10 μM, with follow-up secondary binding assays in 11-point dose-response in triplicate for select compounds versus select receptors. […]

molecule | unitOfMeasurement | Inhibition 1
O=c1oc2ccccc2cc1-c1cn2cc(Cc3ccc(F)cc3)sc2n1 [UNC10302680A, iMDK] | % | 9.97
Cl.NC(=O)c1cnc(N[C@@H]2CCCC[C@@H]2N)nc1Nc1cccc(-n2nccn2)c1 [UNC10302682A, P505-15 (PRT06207 HCl)] | % | 21.38
c1cn2cc(-c3ccc4cn[nH]c4c3)nc(Nc3ccc(N4CCOCC4)cc3)c2n1 [UNC10302678A, Entospletinib (GS-9973)] | % | -9.73
CCCCNc1ncc2c(-c3ccc(CN4CCN(C)CC4)cc3)cn([C@H]3CC[C@H](O)CC3)c2n1 [UNC2025C, UNC2025] | % | 41.44

* * *

Target: cloned human or rodent CNS receptors, channels, and transporters (PDSP panel) (Homo sapiens)
Construct: expressed in transfected cells
Sequence (P50406 whole entry): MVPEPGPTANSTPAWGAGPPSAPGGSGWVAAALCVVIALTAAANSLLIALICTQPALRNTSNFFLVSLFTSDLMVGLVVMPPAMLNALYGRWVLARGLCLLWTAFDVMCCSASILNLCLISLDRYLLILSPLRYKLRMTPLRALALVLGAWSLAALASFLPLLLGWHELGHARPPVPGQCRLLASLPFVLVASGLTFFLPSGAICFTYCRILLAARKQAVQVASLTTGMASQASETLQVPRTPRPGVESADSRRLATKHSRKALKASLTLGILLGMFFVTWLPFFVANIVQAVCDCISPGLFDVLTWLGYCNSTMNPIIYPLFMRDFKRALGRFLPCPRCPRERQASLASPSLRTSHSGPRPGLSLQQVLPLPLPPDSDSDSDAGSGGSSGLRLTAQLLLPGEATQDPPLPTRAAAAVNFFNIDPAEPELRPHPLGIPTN
Assay: PDSP GPCR panel primary binding assays at 10 μM
Details: Receptor 5-HT6; primary assay, 10 μM

compound | Inhibition 1
c1cn2cc(-c3ccc4cn[nH]c4c3)nc(Nc3ccc(N4CCOCC4)cc3)c2n1 [UNC10302678A, Entospletinib (GS-9973)] | -41.25%
CCCCNc1ncc2c(-c3ccc(CN4CCN(C)CC4)cc3)cn([C@H]3CC[C@H](O)CC3)c2n1 [UNC2025C, UNC2025] | -20.29%
O=c1oc2ccccc2cc1-c1cn2cc(Cc3ccc(F)cc3)sc2n1 [UNC10302680A, iMDK] | -5.99%
Cl.NC(=O)c1cnc(N[C@@H]2CCCC[C@@H]2N)nc1Nc1cccc(-n2nccn2)c1 [UNC10302682A, P505-15 (PRT06207 HCl)] | -1.07%

* * *

// values below are reported Inhibition 1
Molecular target: cloned human or rodent CNS receptors, channels, and transporters (PDSP panel) (Cavia porcellus, UniProt Q60492)
Construct: expressed in transfected cells
Sequence (Q60492 whole entry): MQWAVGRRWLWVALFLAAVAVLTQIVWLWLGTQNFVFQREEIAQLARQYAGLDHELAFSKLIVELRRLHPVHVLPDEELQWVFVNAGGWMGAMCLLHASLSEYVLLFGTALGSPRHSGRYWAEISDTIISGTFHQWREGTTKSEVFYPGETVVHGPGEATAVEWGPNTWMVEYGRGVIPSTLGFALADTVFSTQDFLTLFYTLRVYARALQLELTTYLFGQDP
Test: PDSP GPCR panel primary binding assays at 10 μM
Conditions: Sigma 1; primary assay, replicate 1
measureName: Inhibition 1 (%)

compound | measureName | dataValue
CNc1nc(C)nc(N[C@H]2CCC[C@@H](C(=O)NCc3ccc(C#N)cc3C(F)(F)F)C2)n1 [UNC10302679A, GSK2256294A] | Inhibition 1 | 19.71
O=C(NC1CC1)C(=O)C(Cc1ccccc1)NC(=O)[C@H]1CCC(=O)N1Cc1ccccc1 (stereo partly shown) [UNC10302676A, ABT-957 (Alicapistat)] | Inhibition 1 | 5.01
CCC(=O)N1CCC(NC(=O)Nc2ccc(OC(F)(F)F)cc2)CC1 [UNC10302681A, TPPU] | Inhibition 1 | 28.89
CC(=O)N1CCC(NC(=O)NC23CC4CC(CC(C4)C2)C3)CC1 [UNC10302683A, AR9281] | Inhibition 1 | 24.82
